The measured values listed here are drawn from ChEMBL document CHEMBL5247649.

Assay: in vitro
Conditions: mouse, ht-22
Experimental Readout: log10(IC50 at 48 h) (log10 of the value in µM)
Friendly reminder: values = log10 of IC50 at 48 h, unit µM.

Sample "Cc1ccc(-n2cc(COc3cccc4cnc(Nc5cccc(Cl)c5)nc34)nn2)c([N+](=O)[O-])c1" ; log10(IC50 at 48 h) observed: 2.00

Sample "COc1ccc(/C=C2\SC(=S)NC2=O)cc1C#C[Si](C)(C)C" ; log10(IC50 at 48 h) observed: 1.81

Sample "CC(C)CN1CCC(C(=O)Nc2cc3cc(-c4cnn(C)c4)ccc3cn2)CC1" ; log10(IC50 at 48 h) observed: 0.69

Sample "CN1Cc2nn(C)c(C#N)c2-c2cnc3[nH]cc(c3c2)-c2cn(nc2C(F)(F)F)CCCC1=O" ; log10(IC50 at 48 h) observed: 1.71

Sample "CN1CCN(c2cc(C(=O)Nc3cc4cc(-c5cnn(C)c5)ccc4cn3)ccn2)CC1" ; log10(IC50 at 48 h) observed: -0.74

Sample O=C(O[C@@H]1Cc2c(O)cc(O)cc2O[C@@H]1c1cc(O)c(O)c(O)c1)c1cc(O)c(O)c(O)c1 [EPIGALOCATECHIN GALLATE] ; log10(IC50 at 48 h) observed: 1.38

Sample "CCN1CCN(Cc2ccc(Nc3ncc(F)c(-c4cc(F)c5nc(C)n(C(C)C)c5c4)n3)nc2)CC1" ; log10(IC50 at 48 h) observed: 1.09
